Reported TGI by item:
tested on: PC-3 prostate; test: NCI tumour cell line growth inhibition, 48 h
Value expressed in µM; do not type the unit.

N#Cc1c(NC(=O)c2cccc(C(F)(F)F)c2)sc2c1CCC(=O)C2	1.41
COc1ccc(Nc2c(C#N)c3n(c4ccccc24)c2ccccc2[n+]3C)cc1OC	8.38
Brc1cccc(-c2cc(-c3ccc4c(c3)OCCO4)[nH]n2)c1	41.4
CC(CO)(CO)N=Cc1cc(I)cc(I)c1O	32.1
COC(=O)C1=C(C(=O)OC)C2OC1C1C2C2(C)C(C)=C(C)C1(C)S2=O (centres undefined)	45.7

What the record says about CNC(=O)c1ccccc1CC1(O)c2ccccc2Oc2ccccc21 : TGI is 99.3

---

Listed here: items and their measured TGI.
tested on: SNB-75 CNS; test: NCI tumour cell line growth inhibition, 48 h

Below, 2 compounds whose answers are already recorded.
COC(=O)C1(Cc2ccccc2)Cc2cc3c(cc2C1=O)CCC3 (stereo not drawn)	> 100 µM
CC[C@@H]1CC[C@@H]2[C@H](CC[C@]3(C)[C@@H](O)CC[C@@H]23)[C@H]1C(=O)O	> 100 µM

--- query ---
Kindly note the recorded TGI for C/C(=N\NC(=S)NC(C)C)c1nc2ncccc2[nH]1 , which is > 66.7 µM

---

system: M14 melanoma; experiment: NCI tumour cell line growth inhibition, 48 h
endpoint: TGI

Field: example entries. Status: answers known.
COc1cc2c3c(cccc3c1)C(=O)N(CCN1CCCC1)C2=O	5.66 µM
CN(C)/C(=N/C(=S)Nc1ccccc1)SCc1ccccc1	> 100 µM
O=C1O[C@@H](c2ccccc2)C[C@@H]1CN1CCOCC1	> 100 µM
CCOC(=O)C1=C(C)Nc2ccccc2S1	> 100 µM
O=c1[nH]c2nc3ccccc3c(=O)n2/c1=C/c1ccc(O)cc1	> 100 µM
CC(C)(C)OC(=O)NCCCCC(NC(=O)OCc1ccccc1)C(N)=O (centres undefined)	> 100 µM
CN1CCN(CC#Cc2cccc(C(=O)c3cnn(-c4ccc(F)cc4)c3N)c2)CC1	> 25 µM
Cc1nn(-c2ccc(S(=O)(=O)[O-])cc2)c([O-])c1N=[N+](C)c1ccc(-c2ccc(N=Nc3ccc4c(S(=O)(=O)[O-])cc(S(=O)(=O)[O-])c(N)c4c3[O-])c([O-])c2)cc1[O-].[Cu+2].[Cu+2].[Na+]	> 100 µM

Entry Cc1ccccc1C(C#N)C(=O)C(=O)Nc1nc([N+](=O)[O-])cs1 (centres undefined) — recorded TGI = > 100 µM

---

# maps each entry to its TGI
test system: KM12 colon; assay: NCI tumour cell line growth inhibition, 48 h

Here are 3 compounds together with their reported answers.
COc1cc(C(=O)NC2c3ccccc3-c3ccccc32)c(N)cc1OCc1ccccc1	> 100 µM
O=C(NS(=O)(=O)Nc1ccc(Cl)cc1)OCc1ccc(Cl)cc1Cl	57.2 µM
N#Cc1c(NC(=O)c2cccc(C(F)(F)F)c2)sc2c1CCC(=O)C2	1.95 µM

Measured TGI, Cc1ccc2c(C(C[N+](=O)[O-])c3cccs3)c(-c3ccccc3)[nH]c2c1 (stereo not drawn) : 7.25 µM

TGI reading for N#Cc1c(NC(=S)NC(=O)c2ccccc2)nc2c(c1-c1ccccc1)CCC2 : > 100 µM

Form field TGI, entry CCOC(=O)c1cc(=C2\CCN(CC(C)CC)C2=S)/c(=C(/O)CC)[nH]1 (stereo not drawn) : 32 µM

Looking up COc1ccc2c(c1)c1c(n2CCN2CCOCC2)-c2ccccc2CC1 , I see its TGI listed as > 100 µM

What the record says about CC1C(c2cc(C(C)(C)C)c(O)c(C(C)(C)C)c2)c2cc3c(cc2OC1N1CCOCC1)OCO3 (stereo not drawn) : TGI is > 100 µM

---

tested on: TK-10 renal; experiment: NCI tumour cell line growth inhibition, 48 h
Where a SMILES comes first, the peptide text is derived from it. The star is where a group is joined. Boc = CC(C)(C)OC(=O)*; OSu = O=C1CCC(=O)N1O*
Item-by-item account of TGI

Record excerpt, results attached:
CC1(C)CC2(C)CC1CC2O (configuration not stated)	> 100 µM
CC(C)(C)OC(=O)NC(Cc1ccc(O)cc1)C(=O)NC(CCCCN)C(=O)NC(Cc1ccc(O)cc1)C(=O)NC(CCCCN)C(=O)ON1C(=O)CCC1=O (configuration not stated) (Boc-YKYK-OSu; configuration not given here)	> 100 µM

# molecule CC(C)CC(N)C(=O)OCN1C(=O)C2C3C=CC(C2C1=O)C1C2C(=O)N(COC(=O)C(N)CC(C)C)C(=O)C2C31 (configuration not stated) ; its TGI = > 100 µM

// field: TGI; key: N#CCCN(c1ccc(C=Nc2cccc([N+](=O)[O-])c2)cc1)S(=O)(=O)c1ccccc1 ; value = > 100 µM

TGI measured on CCCCCCCCCCCCCCCC(=O)NCC(COP(=O)([O-])OCC[N+](C)(C)C)OCC (configuration not stated) = 3.95 µM

So, COC(=O)C(C#N)=C1c2ccccc2Oc2ccccc21 ? Its TGI was > 100 µM

Short answer for CCOC(=O)C1(CC)CCCCC(=O)N1 (configuration not stated) : TGI was > 100 µM

Short answer for O=c1[nH]c2ccccc2cc1C(Cl)=C(Cl)Cl : TGI was > 100 µM

get_value(item= OCC1CCCC(n2cnc3c(=S)nc[nH]c32)O1 (configuration not stated) , readout=TGI) returns > 100 µM

---

Overview of reported TGI across a group of molecules:
test system: HOP-92 NSCLC; assay: NCI tumour cell line growth inhibition, 48 h

Solved entries (count: 2):
Oc1ccccc1/C=N/Nc1ccc2ccccc2n1	42.5 µM
O=C1NC(c2ccc(O)cc2)C2CCC1C2 (stereo not drawn)	> 100 µM

# context switch: different molecule, same TGI
Field TGI (HOP-92 NSCLC), entry Cc1cn(C2CC(N)C(CN)O2)c(=O)[nH]c1=O (stereo not drawn) : > 100 µM

---

TGI by entry:
system: A498 renal; assay: NCI tumour cell line growth inhibition, 48 h

Below, each entry is followed by its recorded TGI result.
CCCCc1c(O)nc(Nc2nc3ccccc3[nH]2)[nH]c1=O	> 100 µM
OCC1CCCC(n2cnc3c(=S)nc[nH]c32)O1 (centres undefined)	> 100 µM
COc1cc(COC(=O)N[C@H](C(=O)O)C(C)(C)C)c([N+](=O)[O-])cc1OC	> 100 µM
CCn1c(-c2nonc2N)nc2c(C#CCN)ncc(OCCCN)c21	> 25 µM
N#Cc1c(NC(=O)c2cccc(C(F)(F)F)c2)sc2c1CCC(=O)C2	5.5 µM

The compound NC(CO)Cc1cnc[nH]1 (centres undefined) showed TGI equal to > 100 µM

COc1cc2c3c(cccc3c1)C(=O)N(CCN1CCCC1)C2=O has a reported TGI of 3.69 µM

---

test system: COLO 205 colon; test: NCI tumour cell line growth inhibition, 48 h
Listing of recorded TGI by entry.

# annotated cases, reported TGI shown
C1COCCN1.C1COCCN1.N.N.[Cl-].[Pt+2]	> 100 µM
COc1ccc(Nc2c(C#N)c3n(c4ccccc24)c2ccccc2[n+]3C)cc1OC	12 µM
Clc1cc(N/N=C(/c2ccccc2)c2ncccn2)ncn1	22.8 µM

The reported TGI of the compound NC(N)=N/N=C(/c1ccccc1)c1ccc(F)cc1 was 0.841 µM

// O=c1[nH]cnc2c(C3OC(CO)C(O)C3O)c[nH]c12 (stereo not drawn) : TGI value = > 100 µM

// TGI value for O=C(Nc1nc2ccccc2s1)OCC(F)(F)F : > 100 µM

Please fill in: TGI reported for CN1CCN(CC#Cc2cccc(C(=O)c3cnn(-c4ccc(F)cc4)c3N)c2)CC1 = > 25 µM

Short answer for OCC1CCCC(n2cnc3c(=S)nc[nH]c32)O1 (stereo not drawn) : TGI was > 100 µM

// TGI lookup, compound = COC(=O)C(C#N)=C1c2ccccc2Oc2ccccc21 , result: > 100 µM

The measured TGI associated with CCCCCCCCCCCCCCCC(=O)NCC(COP(=O)([O-])OCC[N+](C)(C)C)OCC (stereo not drawn) reads 5.1 µM

Quick note, TGI for O=C1NC(c2ccc(O)cc2)C2CCC1C2 (stereo not drawn) landed at > 100 µM

# TGI (compound: CN(C)CC(=O)N1CCC(c2ccc(NC(=O)c3ncc(C#N)[nH]3)c(C3=CCCCC3)c2)CC1 ) is 14.1 µM

// field: TGI; key: CC(=O)c1ccc(Nc2cc(-c3ccccc3)nc3c(O)cccc23)cc1 ; value = > 100 µM

GET /value?item= COc1cc2oc(-c3ccc(O)cc3)c(OC3OC(C)C(O)C(O)C3O)c(=O)c2c(O)c1OC (stereo not drawn) &field=TGI returns > 100 µM

Input c1sc(NC2=NCCO2)c2c1CCCC2 . Output TGI: > 100 µM

// field: TGI; key: CCOC(=O)CC1=Nc2ccccc2SC1 ; value = > 100 µM

Form: compound = CC(CO)(CO)N=Cc1cc(I)cc(I)c1O ; TGI = 35.3 µM

Memo: CCOC(=O)c1c(NC(=O)c2ccccc2)sc2c1CCCC2 , reported TGI: > 100 µM

The reported numbers originate from PubChem BioAssay (NCI).
